- Test system: H1975 (EGFR L858R/T790M mutant)
- test.details: Cell viability assay, H1975;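 note: NSCLC cells whose survival relies on EGFR L858R/T790M, exposed 72 h to serially diluted compound, ATP-based viability readout, with the H2073 line (wildtype EGFR dependent) as wildtype comparator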
- Format: cell-based
- condition.description: cellular potency ratio
We begin with a simple list: items and their reported Selectivity over wildtype, Wildtype vs mutant H2073/H1975 (fold).

Below: 5 compounds and their reported Selectivity over wildtype, Wildtype vs mutant H2073/H1975 (fold).
[
  {
    "compound": "C=CC(=O)Nc1cc(Nc2nccc(-n3cc(CN(C)C)c(C4CC4)n3)n2)c(OC)cc1N(C)CCOC",
    "system.tested": "H1975 (EGFR L858R/T790M mutant)",
    "reported.result": "101-200 fold"
  },
  {
    "compound": "C=CC(=O)Nc1cc(Nc2nccc(-n3cc(CN4CCC4)c(C4CC4)n3)n2)c(OC)cc1N1CCOCC1",
    "system.tested": "H1975 (EGFR L858R/T790M mutant)",
    "reported.result": "101-200 fold"
  },
  {
    "compound": "C=CC(=O)Nc1cc(Nc2nccc(-n3cc(CN(C)C)c(-c4ccccc4)n3)n2)c(OC)cc1N1CCC1",
    "system.tested": "H1975 (EGFR L858R/T790M mutant)",
    "reported.result": "<20 fold"
  },
  {
    "compound": "C=CC(=O)Nc1cc(Nc2ncc(F)c(-n3cc(CN4CCC4)c(C)n3)n2)c(OC)cc1N1CCOCC1",
    "system.tested": "H1975 (EGFR L858R/T790M mutant)",
    "reported.result": ">200 fold"
  },
  {
    "compound": "C=CC(=O)Nc1cc(Nc2nccc(-n3cc(CN4CCC4)c(-c4cccs4)n3)n2)c(OC)cc1N1CCOCC1",
    "system.tested": "H1975 (EGFR L858R/T790M mutant)",
    "reported.result": "20-200 fold"
  }
]

Supply measured Selectivity over wildtype, Wildtype vs mutant H2073/H1975 (fold) of CCC(=O)Nc1cc(Nc2nccc(-n3cc(CN(C)C)c(-c4ccccc4)n3)n2)c(OC)cc1N1CCOCC1 [Compound 157, reference compound] in your reply.
<20 fold

Supply measured Selectivity over wildtype, Wildtype vs mutant H2073/H1975 (fold) of C=CC(=O)Nc1cc(Nc2ncc(C)c(-n3cc(CN4CCC4)c(C)n3)n2)c(OC)cc1N1CCOCC1 in your reply.
101-200 fold

Supply measured Selectivity over wildtype, Wildtype vs mutant H2073/H1975 (fold) of C=CC(=O)Nc1cc(Nc2ncc(C)c(-n3cc(CN(C)C)c(C)n3)n2)c(OC)cc1N1CCOCC1 in your reply.
101-200 fold

Supply measured Selectivity over wildtype, Wildtype vs mutant H2073/H1975 (fold) of Cc1cc(Nc2nccc(-n3cc(CN4CC[C@@H](O)C4)c(C)n3)n2)cc(C)c1OCCN1CCCC1 [Compound 148, reference compound] in your reply.
<20 fold

Supply measured Selectivity over wildtype, Wildtype vs mutant H2073/H1975 (fold) of C=CC(=O)Nc1cc(Nc2nccc(-n3cc(CN(C)C)c(C)n3)n2)c(OC)cc1N1CCN(CCF)CC1 in your reply.
101-200 fold

Supply measured Selectivity over wildtype, Wildtype vs mutant H2073/H1975 (fold) of CCC(=O)Nc1cc(Nc2nccc(-n3cc(CN4CCC4)c(-c4ccccc4)n3)n2)c(OC)cc1N1CCOCC1 [Compound 158, reference compound] in your reply.
<20 fold

Supply measured Selectivity over wildtype, Wildtype vs mutant H2073/H1975 (fold) of C=CC(=O)Nc1cc(Nc2ncc(C)c(-n3cc(CN4CCC4)c(C4CC4)n3)n2)c(OC)cc1N1CCOCC1 in your reply.
>200 fold

Supply measured Selectivity over wildtype, Wildtype vs mutant H2073/H1975 (fold) of C=CC(=O)Nc1cc(Nc2ncc(C)c(-n3cc(CN(C)C)c(C4CC4)n3)n2)c(OC)cc1N1CCOCC1 in your reply.
>200 fold

Supply measured Selectivity over wildtype, Wildtype vs mutant H2073/H1975 (fold) of Cc1cc(Nc2nccc(-n3cc(CN4CC(O)C4)c(C)n3)n2)cc(C)c1OCCO [Compound 149, reference compound] in your reply.
<20 fold

The values you see were collected from patent USRE50528E1.
